Assay: Primary fluorescence-based thiol-reactive (MSTI) qHTS assay for identification of artifact compounds. (AID 1845221); also: nearly all actives have a fitted effect of over 65% in size
Conditions: MSTI thiol-reactivity probe, 1 h; series mostly up to 53.8 µM
Inconclusive results are not listed. Calls of active or inactive are those of the source. Calls follow the shape of the dose curve; as a rule, active = well fitted inhibition curve with a large enough effect; inconclusive = small, poorly fitted or top-dose-only effect; inactive = no such curve, though single readings can be large or run the other way.
Answer with one of the outcomes given here: active, inactive

Input line: Hello, I am checking results. What call was entered for C/C=C1\[C@H](O[C@@H]2O[C@H](CO)[C@@H](O)[C@H](O)[C@H]2O)OC=C(C(=O)OC)[C@H]1CC(=O)O ?
Output line: inactive

Input line: Hello, I am checking results. What call was entered for CC1=CC(=O)CC(C)(C)[C@H]1/C=C/C(CO)O[C@@H]1O[C@H](CO)[C@@H](O)[C@H](O)[C@H]1O (stereo partly drawn) ?
Output line: active

Input line: Hello, I am checking results. What call was entered for COc1cc(O)c2c(c1)C1=C[C@H](O)[C@@H](O)C[C@]1(C)OC2=O ?
Output line: inactive

Input line: Hello, I am checking results. What call was entered for CCN(CC)CCN(Cc1ccc(-c2ccc(C(F)(F)F)cc2)cc1)C(=O)Cn1c(SCc2ccc(F)cc2)nc(=O)c2c1CCC2 ?
Output line: inactive

Input line: Hello, I am checking results. What call was entered for C[C@@H]1CCC2C(C)(C)[C@H](O)CC[C@]2(C)[C@@]12Cc1c(O)cc3c(c1O2)CNC3=O (stereo partly drawn) ?
Output line: inactive

Input line: Hello, I am checking results. What call was entered for CC(C)C(C(=O)N(C)C(C)C(N)=O)N(C)C(=O)C1CCCN1C(=O)/C=C/C=C/C(O)C(C)O (stereo not drawn) ?
Output line: inactive

Input line: Hello, I am checking results. What call was entered for CC1(C)CCC2(C(=O)OC3OC(CO)C(O)C(O)C3O)CCC3(C)C(=CCC4C5(C)CCC(O)C(C)(C(=O)O)C5CCC43C)C2C1O (stereo not drawn) ?
Output line: inactive

Input line: Hello, I am checking results. What call was entered for O=C(COc1cccc2c(=O)[nH]ccc12)c1ccccc1 ?
Output line: inactive

Input line: Hello, I am checking results. What call was entered for CCOc1ccc(S(=O)(=O)n2c(C)nc3ccccc32)cc1 ?
Output line: inactive

Input line: Hello, I am checking results. What call was entered for O=C1CC2(CCCC2)[C@H](O)C(=O)N1CCCCN1CCN(c2ncccn2)CC1 ?
Output line: inactive

Input line: Hello, I am checking results. What call was entered for C[C@H](NC(c1cccc2[nH]c(=O)c(=O)[nH]c12)P(=O)(O)O)c1ccc(Br)cc1 (stereo partly drawn) ?
Output line: inactive

Input line: Hello, I am checking results. What call was entered for COc1ccc(C[C@H](N)C(=O)N[C@@H]2[C@H](O)[C@H](n3cnc4c(N(C)C)ncnc43)O[C@@H]2CO)cc1 ?
Output line: inactive

Input line: Hello, I am checking results. What call was entered for C[C@H](NC(c1cccc(C[P+](=O)O)c1)[C@H](C)O)c1ccc(Cl)c(Cl)c1 (stereo partly drawn) ?
Output line: inactive

Input line: Hello, I am checking results. What call was entered for Cc1cc(Nc2ncc3cc(-c4c(Cl)cccc4Cl)c(=O)n(C)c3n2)ccc1F ?
Output line: inactive

Input line: Hello, I am checking results. What call was entered for C[C@H]1Oc2cc(cnc2N)-c2c(nn(C)c2C#N)CN(C)C(=O)c2ccc(F)cc21 ?
Output line: inactive

Input line: Hello, I am checking results. What call was entered for C=C[C@H]1CN2CC[C@H]1C[C@@H]2C(O)c1ccnc2ccc(OC)cc12 (stereo partly drawn) ?
Output line: inactive

Input line: Hello, I am checking results. What call was entered for COc1cccc(-c2cc(NCc3ccc4c(c3)OCO4)nc(N)n2)c1 ?
Output line: inactive

Input line: Hello, I am checking results. What call was entered for O=C(NCc1ccc(F)cc1)C(=O)c1c[nH]c2ccccc12 ?
Output line: inactive
